# assayComment: BSK_3C_VCAM1: BioMAP Diversity Plus: 3C Assay for Vascular cell adhesion molecule 1 (VCAM1) Biomarker Activity (AID 2282999)
# conditionsUsed: BioMAP 3C HUVEC, VCAM1 ELISA, cytokine-stimulated; actives raise or lower the signal
Calls of active or inactive are those of the source. The calls were made as follows: active = hit-call score of the fitted dose curve at least 0.9, where 1 is the maximum; inactive = score below 0.9.
endpoint: AC50

> print(dat)
                                    molecule  endpoint      valuereported
 1                             CCCCN(CCO)CCO      AC50           inactive
 2             O=S1(=O)CC(Cl)(Cl)C(Cl)(Cl)C1      AC50  0.618 µM (active)
 3                         CCCCCCCCCC(=O)OCC      AC50   32.5 µM (active)
 4     CCCCCCCC1CCCC1=O (stereo unspecified)      AC50   35.8 µM (active)
 5                   CC(=O)CCC=C(C)CCC=C(C)C      AC50   30.9 µM (active)
 6  CC(=O)OC(C)(C)C1CC=C(C)CC1 (stereo unspecified)      AC50           inactive
 7  CC1(C)[C@H](C=C(Cl)Cl)[C@H]1C(=O)OCc1cccc(Oc2ccccc2)c1      AC50           inactive
 8                         CC(=O)c1ccc(C)cc1      AC50           inactive
 9                              C=C(C)C(N)=O      AC50           inactive
10                               CCCCOCCOCCO      AC50           inactive
11           CC(=O)OCC=C(C)CCC=C(C)CCC=C(C)C      AC50           inactive

Taken from PubChem BioAssay (EPA / NIEHS).
